# Measurement Notes: self-splicing fitness, log relative to wild type (ln ratio); higher = more splicing; Tetrahymena group I intron in knt gene, E. coli kanamycin selection, DiMSum; sequences stand for … in CUCUCU…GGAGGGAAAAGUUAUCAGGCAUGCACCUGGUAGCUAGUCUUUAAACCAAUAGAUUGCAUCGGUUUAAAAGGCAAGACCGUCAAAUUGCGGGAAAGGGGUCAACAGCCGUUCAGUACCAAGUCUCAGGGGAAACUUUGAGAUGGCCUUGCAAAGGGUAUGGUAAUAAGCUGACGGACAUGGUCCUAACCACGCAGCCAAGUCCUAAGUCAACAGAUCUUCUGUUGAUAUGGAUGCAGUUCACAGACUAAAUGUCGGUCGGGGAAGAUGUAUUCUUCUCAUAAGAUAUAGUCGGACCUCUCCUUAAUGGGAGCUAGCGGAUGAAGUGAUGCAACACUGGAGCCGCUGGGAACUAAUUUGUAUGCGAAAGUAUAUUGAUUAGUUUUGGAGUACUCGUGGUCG;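 also: selection with 25 µg/mL kanamycin versus none on LB agar overnight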
# Condition: 37 °C
# self-splicing fitness (ln) per record follows
Reply: number alone, nothing else.

Consider the sequence shown here: UUUAAGCAAUAUUACGGACA What is its recorded self-splicing fitness (ln)?
-0.126

For the sequence GCGCAGCAAUAUUACGCGAG , what self-splicing fitness (ln) is on record?
-0.987

Any idea what self-splicing fitness (ln) was measured for UGAGAGCAAUAUUACGUUAC ?
-1.79

Given GUUUAGCAAUAUUACGUUAG , state its recorded self-splicing fitness (ln).
-0.81

Endpoint output: self-splicing fitness (ln) of CAUCAGCAAUAUUACGACAG . Value?
0.00869
